Hello, the source for this data is PubChem BioAssay (NCATS), in case you need it.

Target Under Test: Nuclear receptor subfamily 1 group I member 2 (Rattus norvegicus)
Test Description: qHTS assay for small molecule activators of the rat pregnane X receptor (rPXR) signaling pathway (AID 651751); also: 0% is about no effect
Conditions: rPXR reporter cells, luciferase (One-Glo), 24 h
Active and inactive are the calls of the source. No rule for the calls is given here.
Answer each item with its documented max response.

As a guide, the following entries are already answered.
                     compound           reported
0  Cc1cc(C)cc([N+](=O)[O-])c1   1.37% (inactive)
1                     CSCCC=O   4.33% (inactive)
2                CC(=O)CC(C)C  -2.17% (inactive)
3     Nc1cccc([N+](=O)[O-])c1  -4.93% (inactive)
4        O=C(O)c1ccccc1C(=O)O  -4.53% (inactive)
5             CNC(=O)c1ccccc1  -4.07% (inactive)

Give me max response for each of these compounds, listed below.
1. Cc1ccc(C(=O)O)cc1
2. CCCOCC(C)OCC(C)O (stereo unspecified)
3. Nc1ccc(F)cc1F
4. C=C(C)C(=O)OCCCCCC
5. C/C=C1\CC2C=CC1C2 (stereo unspecified)
6. C/C(C=O)=C/c1ccccc1
7. CCCCC(CC)CNCC(CC)CCCC (stereo unspecified)

3.84% (inactive)
-1.49% (inactive)
3.66% (inactive)
-0.698% (inactive)
0.0305% (inactive)
2.25% (inactive)
-1.1% (inactive)

Give me max response for each of these compounds, listed below.
1. CC(C)Nc1ccccc1
2. O=[N+]([O-])c1ccc2nc[nH]c2c1
3. COC(=O)CCC(=O)OC

["4.55% (inactive)", "-0.905% (inactive)", "1.71% (inactive)"]

###

Answer each item with its documented activation.
Target Under Test: Glucocorticoid receptor (Homo sapiens) (UniProt P04150)
Sequence (P04150 whole entry, looked up): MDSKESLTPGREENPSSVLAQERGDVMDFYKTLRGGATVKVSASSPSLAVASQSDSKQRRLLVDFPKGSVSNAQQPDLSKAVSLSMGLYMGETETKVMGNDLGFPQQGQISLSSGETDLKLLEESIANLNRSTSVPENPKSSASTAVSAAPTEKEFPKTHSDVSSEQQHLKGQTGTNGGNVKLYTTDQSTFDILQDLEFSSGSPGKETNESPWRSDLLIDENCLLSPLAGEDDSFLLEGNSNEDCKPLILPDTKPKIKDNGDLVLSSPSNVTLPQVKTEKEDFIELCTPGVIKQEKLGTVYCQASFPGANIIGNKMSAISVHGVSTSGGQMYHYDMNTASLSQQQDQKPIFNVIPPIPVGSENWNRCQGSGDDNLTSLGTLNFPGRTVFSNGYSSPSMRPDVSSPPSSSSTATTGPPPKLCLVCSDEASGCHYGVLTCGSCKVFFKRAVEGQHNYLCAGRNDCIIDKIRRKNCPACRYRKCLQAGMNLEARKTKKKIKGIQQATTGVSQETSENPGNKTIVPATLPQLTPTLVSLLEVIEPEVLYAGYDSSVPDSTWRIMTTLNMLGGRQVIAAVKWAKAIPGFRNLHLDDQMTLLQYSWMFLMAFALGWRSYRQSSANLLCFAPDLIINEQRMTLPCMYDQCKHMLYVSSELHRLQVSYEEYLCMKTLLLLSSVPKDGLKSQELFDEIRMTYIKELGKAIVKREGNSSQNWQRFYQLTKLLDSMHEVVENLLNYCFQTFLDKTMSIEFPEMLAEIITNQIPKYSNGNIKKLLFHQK
Test Description: qHTS assay for small molecule agonists of glucocorticoid receptor signaling (AID 588532);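 also: 100% = dexamethasone at 0.1 µM and 0% = DMSO only wells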
Conditions: HeLa MMTV-bla, beta-lactamase ratio, agonist, 18 h; stronger effect = higher value; percent of dexamethasone control, DMSO zero
Results filed as inconclusive are left out.
Answers are plain numbers, in %.

Compound	Unit Of Measurement	activation
O=[N+]([O-])c1c(Cl)cc(Cl)cc1Cl	%	0.964

Give me activation for each of these compounds, listed below.
1. CCCCCCC(=O)O
2. FC(F)(F)c1cccc(Cl)c1
3. C[C@@H]1CC2(OC[C@]3(C)O[C@H]23)O[C@H]2C[C@@]3(C)[C@@H]4CC[C@H]5C(C)(C)C(O[C@@H]6OC[C@@H](O)[C@H](O)[C@H]6O)CC[C@@]56C[C@@]46CC[C@]3(C)[C@@H]12 (stereo partly drawn)
4. CC(N)CN (stereo not drawn)

[2.07, -8.16, -8.99, -2.03]

Give me activation for each of these compounds, listed below.
1. Nc1nc2ccccc2[nH]1
2. CC(C)=CCl
3. Cc1ccc2oc(=O)ccc2c1
4. CCOc1cc(OCC)c(C(C)=O)cc1OCC
5. CC1CCC2CC1C2(C)C (stereo not drawn)
6. O=C(O)c1ccccc1C(=O)O
7. Cc1ccco1

0.673
2.68
-1.61
-0.956
-2.14
-4.91
-1.2

Give me activation for each of these compounds, listed below.
1. Cc1ccc(C)c(O)c1
2. CCCCCCC=O
3. COc1ccc(OC)cc1
4. OC1CCCC1
5. O=[N+]([O-])c1ccccc1CCO
6. C=CCn1c(=O)n(CC=C)c(=O)n(CC=C)c1=O

1. 4.8
2. -0.214
3. -0.922
4. 0.774
5. 3.95
6. -0.0268

Give me activation for each of these compounds, listed below.
1. NC(=O)CCCCC(N)=O
2. CC(C)(C)c1ccc(OCC2CO2)cc1 (stereo not drawn)
3. Nc1cccc(S(=O)(=O)O)c1
4. O=[N+]([O-])c1ccc(CCO)cc1
5. NC(=O)/N=N/C(N)=O

-2.82
-4.85
-6.32
-5.66
7.65

###

Test Description: qHTS assay for small molecule activators of the p53 signaling pathway (AID 651743); also: series mostly up to about 92 µM; % of control where 0% means no effect
Conditions: HCT-116 p53RE-bla, beta-lactamase FRET ratio, 16 h; stronger effect = higher value
Results filed as inconclusive are left out.
Observation Type: activation (%)
Give bare numbers, in %.

As a guide, the following entries are already answered.
>>> print(df.to_string())
                smiles_entry  observation_type  reported
0                  CCCCCCCCN        activation     -1.65
1  O=[N+]([O-])c1ccc(CCO)cc1        activation     -2.15
2             BrC(Br)C(Br)Br        activation     -2.69

Give me activation for each of these compounds, listed below.
1. O=Cc1cccc(Br)c1
2. CCCCCO
3. CC(C)(O)C(=O)O
4. CCNS(=O)(=O)c1ccc(C)cc1

-0.251
0.0408
-1.64
-2.94

Give me activation for each of these compounds, listed below.
1. c1ccsc1
2. NC(=O)c1cccc([N+](=O)[O-])c1
3. c1ccc2[nH]cnc2c1

1: 1.47; 2: 8.78; 3: 0.533
